test system: 3',5'-Cyclic-AMP phosphodiesterase (PDE); assay: Inhibition of PDE from beef heart, high affinity (Fraction II, low Km); type: biochemical; conditions: cAMP 1.6 × 10^-7 M, relative to theophylline
Exercise: for every item that follows, state its recorded α Heart.

molecule="CCc1cc(C)nc2c(Br)cnn12 [XIV]" tgt="3',5'-Cyclic-AMP phosphodiesterase (PDE)" value_reported=4.0
molecule="Cc1cc(C)n2ncc(Br)c2n1 [Example I]" tgt="3',5'-Cyclic-AMP phosphodiesterase (PDE)" value_reported=1.7
molecule="CCCc1cc(C)nc2c(Br)cnn12 [XV]" tgt="3',5'-Cyclic-AMP phosphodiesterase (PDE)" value_reported=6.5
molecule="Cc1cc(C)n2ncc(I)c2n1 [III]" tgt="3',5'-Cyclic-AMP phosphodiesterase (PDE)" value_reported=1.5
molecule="CCCc1cc(CCC)n2ncc(Br)c2n1 [XVII]" tgt="3',5'-Cyclic-AMP phosphodiesterase (PDE)" value_reported=3.0

Batch request: α Heart per item, same order as input.
1. Cc1cc(C)n2ncc(Cl)c2n1 [II]
2. CCc1cc(CC)n2ncc(Br)c2n1 [XVI]

[reply]
1. 1.7
2. 6.0
